Test: gradient 5% acetonitrile 3 min, to 50% in 2 min, to 85% in 15 min, held 3 min, 100 µL/min
Details: column: Zorbax Extend-C18 2.1 x 50 mm; eluents: water / acetonitrile, 0.1% formic acid
property_name: RP-LC retention time (s)

Observe how each entry below is paired with its result.
compound: Cc1cc(F)ccc1NC(=O)c1sc(-c2cn(C)c3ncccc23)nc1C
RP-LC retention time [s]: 899
--
compound: Cc1ccnc(NC(=O)C2CCN(S(=O)(=O)c3ccc(-c4noc(C5CC5)n4)cc3)CC2)c1
RP-LC retention time [s]: 794
--
compound: CCCn1c(=O)sc2cc(S(=O)(=O)N3CCC(C(=O)Nc4cc(C)ccn4)CC3)ccc21
RP-LC retention time [s]: 844
--
compound: Cc1cc(-c2nnc(C3CC3)o2)c(C)n1CC(=O)Nc1cccc(F)c1
RP-LC retention time [s]: 825
--
compound: C=CCNC(=O)Nc1nc(CSC)cs1
RP-LC retention time [s]: 653
--
compound: COc1ccc(S(=O)(=O)N2CC3CN(C(=O)c4ccncc4)CC(C2)O3)cc1
RP-LC retention time [s]: 621

a = CCc1ccc(S(=O)(=O)c2cnc(N3CCN(c4ccccn4)CC3)nc2N)cc1
b = Cc1ccc(S(=O)(=O)Cc2cccc(-c3nc(-c4ccc5c(c4)oc(=O)n5C)no3)c2)cc1
[ask] Which entry shows the lesser value of RP-LC retention time here, a or b ? Your answer should be the label of the entry you select.
[reply] a
(a: 680 s, b: 1030 s)

1 = COC(=O)c1ccc2c(=O)n(-c3cc(OC)cc(OC)c3)c(N3CCCC3)nc2c1
2 = CCn1c(=O)c(=O)n(CC(=O)N2CCN(c3ccccn3)CC2)c2ccccc21
[ask] Which entry shows the lesser value of RP-LC retention time here, 1 or 2 ? Your answer should be the label of the entry you select.
[reply] 2
(2: 563 s, 1: 920 s)

----------
Assay: gradient 5% acetonitrile 3 min, to 50% in 2 min, to 85% in 15 min, held 3 min, 100 µL/min
Details: column: Zorbax Extend-C18 2.1 x 50 mm; eluents: water / acetonitrile, 0.1% formic acid
property_name: RP-LC retention time (s)

Observe how each entry below is paired with its result.
compound: COc1ccc(Cl)cc1S(=O)(=O)N1CC(c2nc(-c3ccncc3)nn2C)C1
property_name: RP-LC retention time
unit_spec: s
observed_value: 664
--
compound: COc1cccc(C(=O)NCCCn2cccc2)c1
property_name: RP-LC retention time
unit_spec: s
observed_value: 749
--
compound: Clc1cc(-c2nc(-c3cccc(-c4ccn[nH]4)c3)no2)ccn1
property_name: RP-LC retention time
unit_spec: s
observed_value: 949

P = COc1ccccc1CNC(=O)C1CCCN(c2nnc3ccccn23)C1 (centres undefined)
Q = Cc1cc(C)c(S(=O)(=O)N2CCC(c3noc(-c4ccccc4)n3)CC2)c(C)c1
[ask] Which entry shows the lesser value of RP-LC retention time here, P or Q ? Your answer should be the label of the entry you select.
[reply] P
(P: 652 s, Q: 1350 s)

A = Fc1cccc(-c2noc(CSc3nccn3-c3ccccc3)n2)c1
B = O=C(CN1CCC(c2nnc(-c3ccc(F)cc3)o2)CC1)Nc1cccnc1
[ask] Choose between A and B : whose measured RP-LC retention time value is numerically larger? Your answer should be the label of the entry you select.
[reply] A

a = CCn1ncc(CN2CC(c3nc(CCOCc4ccccc4)no3)C2)c1C
b = CCc1ccc(NC(=O)N2CCC3(CC2)NC(=O)c2ccc(Cl)cc2N3CC)cc1
[ask] Choose between a and b : whose measured RP-LC retention time value is numerically larger? Your answer should be the label of the entry you select.
[reply] b
(b: 968 s, a: 662 s)
